Where these numbers come from: patent US9834537B2

SYSTEM TESTED: calcium ion-activated chloride channel (Xenopus laevis, UniProt B5SVV6)
Sequence (B5SVV6 entry or part of it): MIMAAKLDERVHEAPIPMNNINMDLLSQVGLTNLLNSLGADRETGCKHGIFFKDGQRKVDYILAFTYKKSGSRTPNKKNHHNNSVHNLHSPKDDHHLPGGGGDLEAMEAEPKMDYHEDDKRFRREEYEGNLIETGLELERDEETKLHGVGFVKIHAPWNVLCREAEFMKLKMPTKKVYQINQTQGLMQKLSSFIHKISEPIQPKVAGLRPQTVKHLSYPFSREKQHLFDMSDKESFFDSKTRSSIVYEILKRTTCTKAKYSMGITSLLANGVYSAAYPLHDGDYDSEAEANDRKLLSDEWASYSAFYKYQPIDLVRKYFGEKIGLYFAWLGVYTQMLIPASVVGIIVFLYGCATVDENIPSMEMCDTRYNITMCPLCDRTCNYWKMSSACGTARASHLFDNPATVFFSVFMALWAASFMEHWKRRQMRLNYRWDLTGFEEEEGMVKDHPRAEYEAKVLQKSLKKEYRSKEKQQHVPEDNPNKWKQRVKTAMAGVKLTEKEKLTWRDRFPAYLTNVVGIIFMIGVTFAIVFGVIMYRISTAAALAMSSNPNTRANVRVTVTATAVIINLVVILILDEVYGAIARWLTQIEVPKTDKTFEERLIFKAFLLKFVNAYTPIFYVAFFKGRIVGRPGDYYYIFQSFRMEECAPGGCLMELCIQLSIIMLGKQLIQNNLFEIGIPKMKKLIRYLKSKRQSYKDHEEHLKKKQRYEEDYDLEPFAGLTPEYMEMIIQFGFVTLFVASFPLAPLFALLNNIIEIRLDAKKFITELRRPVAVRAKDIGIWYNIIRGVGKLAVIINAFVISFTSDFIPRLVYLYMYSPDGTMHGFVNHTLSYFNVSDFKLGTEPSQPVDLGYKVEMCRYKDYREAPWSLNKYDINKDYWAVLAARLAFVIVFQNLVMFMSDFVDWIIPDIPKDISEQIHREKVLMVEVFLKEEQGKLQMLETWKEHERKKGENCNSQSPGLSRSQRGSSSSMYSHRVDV
TEST METHOD NOTES: Patch clamp method: two-electrode voltage clamp recording on Xenopus laevis eggs, calcium-dependent chloride channel blocking activity
Type: cell-based
RECORDED CONDITIONS: Table 2 upper part, naphthyl compounds of formula 1b (scaffold drawing 37; * = position of naphthyl attachment)
pIC50: −log10 of the molar value.
Would you mind labelling by pIC50? At or over 5 is Fulfilled, under is Not fulfilled.

Request: Decide: pIC50 of O=C(O)c1cc([N+](=O)[O-])ccc1Nc1cccc2ccccc12 >= 5?
Response: Fulfilled

Request: Decide: pIC50 of COc1ccc2cccc(Nc3ccc([N+](=O)[O-])cc3C(=O)O)c2c1 >= 5?
Response: Fulfilled

Request: Confirm if pIC50 reported for the molecule COc1ccc(Nc2ccc([N+](=O)[O-])cc2C(=O)O)c2ccccc12 is 5 or above.
Response: Fulfilled

Request: Kindly determine if pIC50 recorded for COc1ccc(Nc2cc([N+](=O)[O-])ccc2C(=O)O)c2ccccc12 is above or exactly 5.
Response: Not fulfilled

Request: I'd appreciate it if you could say whether O=C(O)c1ccc([N+](=O)[O-])cc1Nc1ccc(Cl)c2ccccc12 has pIC50 at least equal to 5.
Response: Fulfilled

====

SYSTEM TESTED: calcium ion-activated chloride channel (Xenopus laevis, UniProt B5SVV6)
TEST METHOD NOTES: Patch clamp method: two-electrode voltage clamp recording on Xenopus laevis eggs, calcium-dependent chloride channel blocking activity
Type: cell-based
RECORDED CONDITIONS: Table 2 upper part, naphthyl compounds of formula 1b (scaffold drawing 37; * = position of naphthyl attachment)
MEASUREMENT KIND: IC50 (nM)
Report the figure in nM without appending any unit label.

Request: Item: COc1ccc2c(Nc3ccc([N+](=O)[O-])cc3C(=O)O)cccc2c1 Test system: calcium ion-activated chloride channel (Xenopus laevis, UniProt B5SVV6) Read-out: IC50 Value: ?
Response: 1140

Request: API: value(readout= IC50, system= calcium ion-activated chloride channel (Xenopus laevis, UniProt B5SVV6), query= O=C(O)c1cc([N+](=O)[O-])ccc1Nc1ccc(Br)c2ccccc12 )
Response: 1500

Request: For calcium ion-activated chloride channel (Xenopus laevis, UniProt B5SVV6), provide IC50 of COc1cc(Nc2ccc([N+](=O)[O-])cc2C(=O)O)c2ccccc2c1 please.
Response: 1800

====

SYSTEM TESTED: calcium ion-activated chloride channel (Xenopus laevis, UniProt B5SVV6)
TEST METHOD NOTES: Patch clamp method: two-electrode voltage clamp recording on Xenopus laevis eggs, calcium-dependent chloride channel blocking activity
Type: cell-based
RECORDED CONDITIONS: Table 2 lower part, comparison phenyl anthranilic acid compounds of Korean Patent Registration No. 892591 (scaffold drawing 38)
MEASUREMENT KIND: IC50
Please provide the amount together with its unit, number first.

Request: Which IC50 reading was recorded for the molecule O=C(O)c1cc([N+](=O)[O-])ccc1Nc1ccccc1 [drawing 38 R1=5-NO2 R3=H, reference compound] ?
Response: 42.5 µM

====

Record form. Attribute: pIC50. Fill in for each entry.
SYSTEM TESTED: calcium ion-activated chloride channel (Xenopus laevis, UniProt B5SVV6)
TEST METHOD NOTES: Patch clamp method: two-electrode voltage clamp recording on Xenopus laevis eggs, calcium-dependent chloride channel blocking activity
Type: cell-based
RECORDED CONDITIONS: Table 2 upper part, naphthyl compounds of formula 1b (scaffold drawing 37; * = position of naphthyl attachment)
# pIC50: negative log10 of molar concentration; output just the value

Request: // lookup pIC50 | system=calcium ion-activated chloride channel (Xenopus laevis, UniProt B5SVV6) | key= COc1cccc2cccc(Nc3ccc([N+](=O)[O-])cc3C(=O)O)c12 [Compound No. 51]
Response: 5.07

Request: Missing value: pIC50, calcium ion-activated chloride channel (Xenopus laevis, UniProt B5SVV6), entry COc1cccc2c(Nc3ccc([N+](=O)[O-])cc3C(=O)O)cccc12 [Compound No. 48] . Fill in?
Response: 5.04

Request: # query: pIC50 | item COc1ccc2ccccc2c1Nc1ccc([N+](=O)[O-])cc1C(=O)O [Compound No. 45] | system: calcium ion-activated chloride channel (Xenopus laevis, UniProt B5SVV6)
Response: 5.04
